pIC50: −log10 of the molar value.
QUANTITY: pIC50

Q: Can you look up pIC50 on UniProt O15530 for CNC(=O)c1cc(Oc2ccc(NC(=O)Nc3cc(C(C)(C)C)nn3-c3ccc4ncccc4c3)c(F)c2)ccn1 [Rebastinib] ?
A: < 6.00
